Can you tell me Fold Change of Gigasomes Produced vs. DMSO for the items I'm about to list?
# System: cardiomyocytic cell line derived from human ventricular heart tissue
# procedure.text: Small molecule compound screen of gigasome production in cardiomyocytic monocultures;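 also: gigasomes shed into the culture medium were imaged by confocal microscopy and counted as round particles lacking nuclear signal, extrapolated to the whole well, fold change is relative to DMSO vehicle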
# details: Table 23 (down-regulators); dose 10 nM; cardiomyocytes

Exercise: Field request: Fold Change of Gigasomes Produced vs. DMSO | item: CCCCCCCCCCCCCCOc1ccc(C(=O)O)o1
Solution: 1.0-1.25

Exercise: Subsequent entry: COC(=O)C1=C(C)NC(C)=C([N+](=O)[O-])C1c1ccccc1C(F)(F)F (centres unmarked)
Solution: 0.75-1.0

Exercise: Subsequent entry: O=C(Oc1cccc(F)c1OC(=O)c1cccc(O)c1)c1cccc(O)c1 [WZB117, reference compound]
Solution: 1.0-1.25

Exercise: Subsequent entry: Fc1ccc(CNc2ncnc3ccc(F)cc23)cc1
Solution: 0.75-1.0

Exercise: Subsequent entry: O=C1CSC(c2ccccc2Cl)c2cc(Cl)ccc2N1 (centres unmarked) [CGP37157, reference compound]
Solution: 0.75-1.0

----------
# Tested on: neuronal cell line derived from human neuroblastoma
# procedure.text: Small molecule compound screen of gigasome production in neuronal monocultures
# details: neuronal cells, dose 10000 nM, 24 hours
Counter-ions that a name gives are not always drawn.
Can you tell me Number of Gigasomes Produced for the items I'm about to list?

Exercise: Field request: Number of Gigasomes Produced | item: O=C(/C=C/c1ccc(/C=C/C(=O)Nc2ccc(C3=NCCN3)cc2)cc1)Nc1ccc(C2=NCCN2)cc1 [GW4869, reference compound]
Solution: 5-10

Exercise: Subsequent entry: O=c1ncn2nc(Sc3ccc(F)cc3F)ccc2c1-c1c(Cl)cccc1Cl [Neflamapimod]
Solution: 15-20

Exercise: Subsequent entry: COC(=O)c1ccccc1NC(=O)c1ccc(F)cc1 [EXO1, reference compound]
Solution: 10-15

Exercise: Subsequent entry: CC[C@@]1([C@@H]2O[C@@H]([C@H]3O[C@@](O)(CO)[C@H](C)C[C@@H]3C)C[C@@H]2C)CC[C@H]([C@]2(C)CC[C@]3(C[C@H](O)[C@@H](C)[C@@H]([C@@H](C)[C@@H](OC)[C@H](C)C(=O)O)O3)O2)O1 [Monensin sodium salt]
Solution: 55-65

Exercise: Subsequent entry: C=C(C)[C@@H]1CC[C@]2(C(=O)O)CC[C@]3(C)[C@H](CC[C@@H]4[C@@]5(C)CC[C@H](O)C(C)(C)[C@@H]5CC[C@]43C)[C@@H]12 [Betulinic acid]
Solution: 55-65

Exercise: Subsequent entry: CCCCc1ccc(NC(C)=O)c(C)c1 [SMIP004]
Solution: 30-35

Exercise: Subsequent entry: CN1C(=N)N[C@](C)(c2cc(NC(=O)c3ccc(F)cn3)ccc2F)CS1(=O)=O [Verubecestat]
Solution: 20-25

----------
# Test system: neuronal cell line derived from human neuroblastoma
# details: neuronal cells, dose 100 nM, 24 hours
Structures can show the parent of a compound that is named as a salt. Peptide text beside a SMILES is read from it. * marks the point of attachment. Cbz = O=C(OCc1ccccc1)*
measured.metric: Viability

Exercise: Give recorded Viability with neuronal cell line derived from human neuroblastoma for the following molecule: COc1ccc(C[C@H]2NC[C@H](O)[C@H]2OC(C)=O)cc1
Solution: >75%

Exercise: Subsequent entry: COC(=O)c1ccccc1NC(=O)c1ccc(F)cc1 [EXO1, reference compound]
Solution: 100%

Exercise: Subsequent entry: CC(C)(O)c1coc(S(=O)(=O)NC(=O)Nc2c3c(cc4c2CCC4)CCC3)c1 [MCC950 sodium]
Solution: >75%

Exercise: Subsequent entry: CC[C@H](CO)Nc1nc(NCc2ccccc2)c2ncn(C(C)C)c2n1
Solution: 100%

Exercise: Subsequent entry: CC(C)[C@H](O)C(=O)N[C@@H](C)C(=O)N[C@@H]1C(=O)N(C)CCc2ccccc21
Solution: 100%

Exercise: Subsequent entry: CC(=O)c1cc2c(o1)C(=O)c1ccccc1C2=O
Solution: 100%

Exercise: Subsequent entry: O=C(c1ccc2nccnc2c1)N1CCCCC1
Solution: 100%

Exercise: Subsequent entry: CC[C@@]1([C@@H]2O[C@@H]([C@H]3O[C@@](O)(CO)[C@H](C)C[C@@H]3C)C[C@@H]2C)CC[C@H]([C@]2(C)CC[C@]3(C[C@H](O)[C@@H](C)[C@@H]([C@@H](C)[C@@H](OC)[C@H](C)C(=O)O)O3)O2)O1 [Monensin sodium salt]
Solution: >75%

Exercise: Subsequent entry: CN1C(=N)N[C@](C)(c2cc(NC(=O)c3ccc(F)cn3)ccc2F)CS1(=O)=O
Solution: 100%

Exercise: Subsequent entry: CCN(CCO)CCCC(C)Nc1ccnc2cc(Cl)ccc12 (centres unmarked) [Hydroxychloroquine]
Solution: 100%

Exercise: Subsequent entry: CC(C)C[C@@H](C=O)NC(=O)[C@H](CC(C)C)NC(=O)[C@H](CC(C)C)NC(=O)OCc1ccccc1 [MG-132, reference compound] (Cbz-Leu-Leu-Leu-aldehyde)
Solution: 50-75%

Exercise: Subsequent entry: CO/C1=C\C(C)=C\[C@@H](C)[C@@H](O)[C@@H](C)C/C(C)=C/C=C/[C@H](OC)[C@@H]([C@@H](C)[C@@H](O)[C@H](C)[C@@]2(O)C[C@@H](O)[C@H](C)[C@@H](C(C)C)O2)OC1=O [Bafilomycin A1, reference compound]
Solution: 100%

Exercise: Subsequent entry: O=C(Nc1ccc(O)c(C(=O)O)c1)c1cccc(NC(=O)c2ccco2)c1
Solution: >75%

Exercise: Subsequent entry: Cn1cnc(N)c2ncnc1-2
Solution: 100%

# credit: patent US20240400986A1
